Kindly state viability, T/C for each of the entries shown.
# Test system: 323965-272-R-J2-PDC complex spheroid growth, % test/control;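 note: compound exposure lasted 7 days starting three days after spheroid seeding; 100% = DMSO vehicle control wells with viability set relative to vehicle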
# test-method-notes: Anticancer human tumor 323965-272-R-J2-PDC patient-derived pancreatic carcinoma cell line growth inhibition [Asc]
# experimental-parameters: second compound 0.3 µM; first compound 3.16 µM; active compounds read low
# value in %; strip the unit string

Which measured viability, T/C value corresponds to C#Cc1c(F)ccc2cc(O)cc(-c3ncc4c(N5CC6CCC(C5)N6)nc(OCC56CCCN5CC(F)C6)nc4c3F)c12 (centres undefined) + CCN1C(C(=O)NC23CCC(C(=O)O)(CC2)CC3)C(c2cccc(Cl)c2F)C2(C(=O)Nc3cc(Cl)ccc32)C12CCCCC2 ?
78.6

Which measured viability, T/C value corresponds to C=CC(=O)N1CCN(c2nc(=O)n(-c3c(C)ccnc3C(C)C)c3nc(-c4c(O)cccc4F)c(F)cc23)C(C)C1 (centres undefined) + CCN1C(C(=O)NC23CCC(C(=O)O)(CC2)CC3)C(c2cccc(Cl)c2F)C2(C(=O)Nc3cc(Cl)ccc32)C12CCCCC2 ?
67.7

Which measured viability, T/C value corresponds to O=C(c1cc(Cc2n[nH]c(=O)c3ccccc23)ccc1F)N1CCN(C(=O)C2CC2)CC1 + CCN1C(C(=O)NC23CCC(C(=O)O)(CC2)CC3)C(c2cccc(Cl)c2F)C2(C(=O)Nc3cc(Cl)ccc32)C12CCCCC2 ?
103

Which measured viability, T/C value corresponds to C=C(F)C(=O)N1CCN(c2nc(OCC3CCCN3C)nc3c2CCN(c2cccc4cccc(Cl)c24)C3)CC1CC#N (centres undefined) + CCN1C(C(=O)NC23CCC(C(=O)O)(CC2)CC3)C(c2cccc(Cl)c2F)C2(C(=O)Nc3cc(Cl)ccc32)C12CCCCC2 ?
74.8
